Tested on: ITK;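 also: KINOMEscan kinase panel screen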
condition: concentration: 1 μM, replicates: in singlicate; n = 1
Please respond with reported %Inh for every item in the list.
Field: numeric (%). Do not append units.

Query: Looking for the measured %Inh of O=C(NCCCN1CCOCC1)c1cccc(Nc2nccc(Nc3ccc(Oc4ccccc4)cc3)n2)c1 , can you help?
Result: 0

Query: Looking for the measured %Inh of Cc1cccc(-c2nc(-c3ccc(S(C)(=O)=O)cc3)sc2-c2ccncc2)c1 , can you help?
Result: 19

Query: Looking for the measured %Inh of COc1ccc(Nc2ncc(C#N)c(Nc3ccccc3C(N)=O)n2)cc1N1CCN(C)CC1.Cl , can you help?
Result: 99.8

Query: Looking for the measured %Inh of COc1cc2c(cc1OC[C@@H](O)CO)ncc1c3ccc(C#N)cc3[nH]c21 , can you help?
Result: 13
